Data provenance is paper PMC11532403.

- protocol description: Phase 1 trial: plasma pharmacokinetics
- Type: in vivo
- conditions used: human, 20 mg, Cycle 1 Day 1, 20 mg QD (n = 1), read-out: Cmax mean

compound string: COc1ccc(CN2C3CC2CN(c2ccc(-c4cc(N5CC(C)(O)C5)cn5ncc(C#N)c45)cn2)C3)cn1
Cmax (ng/mL): 391

----------
- protocol description: Phase 1 trial: plasma pharmacokinetics
- Assay type: in vivo
- conditions used: human, oral, 20 mg, Cycle 1 Day 28, 20 mg BID (n = 1), read-out: Tmax mean

compound string: COc1ccc(CN2C3CC2CN(c2ccc(-c4cc(N5CC(C)(O)C5)cn5ncc(C#N)c45)cn2)C3)cn1
Tmax: 30 min

----------
- protocol description: Phase 1 trial: plasma pharmacokinetics
- Format: in vivo
- conditions used: human, oral, 40 mg, Cycle 1 Day 28, 40 mg BID (n = 3), read-out: AUCINF_obs mean

molecule: COc1ccc(CN2C3CC2CN(c2ccc(-c4cc(N5CC(C)(O)C5)cn5ncc(C#N)c45)cn2)C3)cn1 [SY-5007]
unit abbrev: ng·h/mL
AUC(0-inf): 7100

----------
- protocol description: Pharmacokinetics in beagles
- Assay type: in vivo
- conditions used: both sexes, beagle, dog, plasma, po, 5 mg/kg

compound string: COc1ccc(CN2C3CC2CN(c2ccc(-c4cc(N5CC(C)(O)C5)cn5ncc(C#N)c45)cn2)C3)cn1
bioavailability [%]: 74.1

----------
- protocol description: Phase 1 trial: plasma pharmacokinetics
- Assay type: in vivo
- conditions used: human, oral, 120 mg, Cycle 1 Day 28, 120 mg BID (n = 3), read-out: AUC0–12 h mean

compound string: COc1ccc(CN2C3CC2CN(c2ccc(-c4cc(N5CC(C)(O)C5)cn5ncc(C#N)c45)cn2)C3)cn1
AUC(0-t): 21500 ng·h/mL

----------
- protocol description: Pharmacokinetics in beagles
- Assay type: in vivo
- conditions used: both sexes, beagle, dog, plasma, po; gavage 2.5-10 mg/kg
measure: half-life

compound: COc1ccc(CN2C3CC2CN(c2ccc(-c4cc(N5CC(C)(O)C5)cn5ncc(C#N)c45)cn2)C3)cn1 [SY-5007]
measure: half-life
reported measurement: 4.81 to 7.53 h

----------
- protocol description: Pharmacokinetics in beagles
- Format: in vivo
- conditions used: both sexes, beagle, dog, plasma, iv; 1 mg/kg i.v.; read-out: Vss

compound: COc1ccc(CN2C3CC2CN(c2ccc(-c4cc(N5CC(C)(O)C5)cn5ncc(C#N)c45)cn2)C3)cn1 [SY-5007]
Vd [L/kg]: 1.43

----------
- target under test: RET^M918T (Homo sapiens, UniProt P07949, M918T)
- Construct: RET (residues 658-1114) was cloned into pFastBac vector containing an N-terminal Glutathione S-transferase (GST) tag
- protocol description: HTRF kinEASE-TK kinase assay
- conditions used: ATP at Km; read-out: Biochemical IC50 RET^M918T
pIC50: −log10 of the molar value.
measure: pIC50

compound string: COc1ccc(CN2C3CC2CN(c2ccc(-c4cc(N5CC(C)(O)C5)cn5ncc(C#N)c45)cn2)C3)cn1
reported measurement: 9.08

----------
- protocol description: Phase 1 trial: plasma pharmacokinetics
- Assay type: in vivo
- conditions used: human, oral, 120 mg, Cycle 1 Day 28, 120 mg BID (n = 3), read-out: Cmax mean
measure: Cmax (ng/mL)

molecule: COc1ccc(CN2C3CC2CN(c2ccc(-c4cc(N5CC(C)(O)C5)cn5ncc(C#N)c45)cn2)C3)cn1 [SY-5007]
reported measurement: 2870

----------
- protocol description: Phase 1 trial: plasma pharmacokinetics
- Format: in vivo
- conditions used: human, oral, 200 mg, Cycle 1 Day 1, 200 mg BID (n = 9), read-out: MRTINF_obs mean
measure: MRT inf (h)

compound string: COc1ccc(CN2C3CC2CN(c2ccc(-c4cc(N5CC(C)(O)C5)cn5ncc(C#N)c45)cn2)C3)cn1
unit abbrev: h
reported measurement: 15

----------
- protocol description: Pharmacokinetics in beagles
- Format: in vivo
- conditions used: both sexes, beagle, dog, plasma, po, 10 mg/kg
measure: bioavailability (%)

compound string: COc1ccc(CN2C3CC2CN(c2ccc(-c4cc(N5CC(C)(O)C5)cn5ncc(C#N)c45)cn2)C3)cn1
unit abbrev: %
reported measurement: 33.9

----------
- protocol description: Pharmacokinetics in beagles
- Assay type: in vivo
- conditions used: both sexes, beagle, dog, plasma, iv; 1 mg/kg i.v.

compound string: COc1ccc(CN2C3CC2CN(c2ccc(-c4cc(N5CC(C)(O)C5)cn5ncc(C#N)c45)cn2)C3)cn1
half-life [h]: 3.27

----------
- target under test: RET^WT (Homo sapiens)
- Sequence (P07949 658-1114): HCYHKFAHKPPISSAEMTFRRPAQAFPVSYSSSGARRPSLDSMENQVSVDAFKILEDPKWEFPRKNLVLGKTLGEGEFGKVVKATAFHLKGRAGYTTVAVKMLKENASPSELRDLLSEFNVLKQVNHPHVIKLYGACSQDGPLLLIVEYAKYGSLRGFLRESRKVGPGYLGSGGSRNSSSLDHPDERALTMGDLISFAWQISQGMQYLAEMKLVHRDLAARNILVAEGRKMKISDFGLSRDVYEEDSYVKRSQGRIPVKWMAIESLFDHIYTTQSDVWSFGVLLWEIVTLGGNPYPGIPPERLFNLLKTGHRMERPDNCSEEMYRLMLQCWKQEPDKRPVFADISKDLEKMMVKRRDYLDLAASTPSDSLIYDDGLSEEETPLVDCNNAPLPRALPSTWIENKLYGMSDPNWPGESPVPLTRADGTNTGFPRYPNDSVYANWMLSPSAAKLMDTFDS

compound: COc1ccc(CN2C3CC2CN(c2ccc(-c4cc(N5CC(C)(O)C5)cn5ncc(C#N)c45)cn2)C3)cn1 [SY-5007]
target under test: RET^WT (Homo sapiens)
IC50 / nM: 0.339

----------
- protocol description: Phase 1 trial: plasma pharmacokinetics
- Format: in vivo
- conditions used: human, oral, 20 mg, Cycle 1 Day 28, 20 mg QD (n = 1), read-out: Cmax mean
- Text: Serial plasma samples were also collected in each patient after the first dose and during multiple-dose administration on Cycle 1 Day 28.

compound string: COc1ccc(CN2C3CC2CN(c2ccc(-c4cc(N5CC(C)(O)C5)cn5ncc(C#N)c45)cn2)C3)cn1
Cmax: 388 ng/mL

----------
- protocol description: Phase 1 trial: plasma pharmacokinetics
- Type: in vivo
- conditions used: human, oral, 200 mg, Cycle 1 Day 1, 200 mg BID (n = 9), read-out: AUCINF_obs mean

compound: COc1ccc(CN2C3CC2CN(c2ccc(-c4cc(N5CC(C)(O)C5)cn5ncc(C#N)c45)cn2)C3)cn1 [SY-5007]
AUC(0-inf), ng·h/mL: 21600

----------
- protocol description: Phase 1 trial: plasma pharmacokinetics
- Type: in vivo
- conditions used: human, 40 mg, Cycle 1 Day 1, 40 mg BID (n = 3), read-out: Cmax mean
measure: Cmax (ng/mL)

compound string: COc1ccc(CN2C3CC2CN(c2ccc(-c4cc(N5CC(C)(O)C5)cn5ncc(C#N)c45)cn2)C3)cn1
measure: Cmax
unit abbrev: ng/mL
reported measurement: 714

----------
- protocol description: Phase 1 trial: plasma pharmacokinetics
- Assay type: in vivo
- conditions used: human, 200 mg, Cycle 1 Day 28, 200 mg BID (n = 5), read-out: MRTINF_obs mean
measure: MRT inf (h)

compound string: COc1ccc(CN2C3CC2CN(c2ccc(-c4cc(N5CC(C)(O)C5)cn5ncc(C#N)c45)cn2)C3)cn1
unit abbrev: h
reported measurement: 10.8

----------
- protocol description: Phase 1 trial: plasma pharmacokinetics
- Type: in vivo
- conditions used: human, oral, 80 mg, Cycle 1 Day 28, 80 mg BID (n = 3), read-out: Cmax mean

compound string: COc1ccc(CN2C3CC2CN(c2ccc(-c4cc(N5CC(C)(O)C5)cn5ncc(C#N)c45)cn2)C3)cn1
Cmax: 1960 ng/mL

----------
- protocol description: Pharmacokinetics in beagles
- Assay type: in vivo
- conditions used: both sexes, beagle, dog, plasma, po; gavage 10 mg/kg

compound string: COc1ccc(CN2C3CC2CN(c2ccc(-c4cc(N5CC(C)(O)C5)cn5ncc(C#N)c45)cn2)C3)cn1
unit abbrev: ng·h/mL
AUC(0-inf): 9030

----------
- protocol description: Phase 1 trial: plasma pharmacokinetics
- Assay type: in vivo
- conditions used: human, oral, 20 mg, Cycle 1 Day 28, 20 mg BID (n = 1), read-out: Cmax mean
measure: Cmax (µg/mL)

compound string: COc1ccc(CN2C3CC2CN(c2ccc(-c4cc(N5CC(C)(O)C5)cn5ncc(C#N)c45)cn2)C3)cn1
measure: Cmax
reported measurement: 0.64

----------
- protocol description: Phase 1 trial: plasma pharmacokinetics
- Type: in vivo
- conditions used: human, 80 mg, Cycle 1 Day 1, 80 mg BID (n = 3), read-out: T1/2 mean (converted)
- Description: Serial plasma samples were also collected in each patient after the first dose and during multiple-dose administration on Cycle 1 Day 28.

compound: COc1ccc(CN2C3CC2CN(c2ccc(-c4cc(N5CC(C)(O)C5)cn5ncc(C#N)c45)cn2)C3)cn1 [SY-5007]
half-life: 37.8 h
